assay comment: chemical genetic growth profiling, strain panel (AID 1159580);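 further: tested at 20 µM; growth read once vehicle control cultures reached saturation at 30 °C; 1 = growth at the plate median or of vehicle wells; lower values mean less growth of the strain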
test parameters: S. cerevisiae deletion strains, growth OD, locus YPR167C, strain met16, hits give low values
The whole screen tested about 5,500 compounds, of which about 2,000 (36%) were called active. Inconclusive results (about 18%) are left out. Some of the results follow.
// normalized growth lookup, one value per entry
Number, no unit, nothing else.

Examples with answers:
{"compound": "COc1ccc2c(c1OC)OC[C@@H](c1ccc(OC)c(OC)c1OC)C2", "measured number": 1.01}
{"compound": "CC(=O)NO", "measured number": 0.983}
{"compound": "O=c1[nH]cnc2c1ncn2C1O[C@H](CO)[C@@H](O)[C@H]1O (some centres not stated)", "measured number": 1.02}
{"compound": "COc1cc2c(cc1O)CCNC2C (configuration not stated)", "measured number": 0.974}
{"compound": "c1ccc([C@H]2CN3CCSC3=N2)cc1", "measured number": 0.998}
{"compound": "O=C(O)c1cc([N+](=O)[O-])ccc1NCCCc1ccccc1", "measured number": 0.943}

Give the value of normalized growth reported for the following: `Cc1cc(=O)n(-c2ccccc2)n1C`
0.984

Give the value of normalized growth reported for the following: COc1cc2c(cc1OC)[C@@]13CCN4CC5=CCOC6CC(=O)N2C1[C@H]6[C@H]5C[C@H]43 (some centres not stated)
1.01

Give the value of normalized growth reported for the following: CC(=O)OCC1=C(C(=O)O)N2C(=O)[C@@H](NC(=O)CCCC(N)C(=O)O)C2SC1 (some centres not stated)
1

---

assay comment: chemical genetic growth profiling, strain panel (AID 1159580);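 further: tested at 20 µM; growth read once vehicle control cultures reached saturation at 30 °C; 1 = growth at the plate median or of vehicle wells; lower values mean less growth of the strain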
test parameters: S. cerevisiae deletion strains, growth OD, locus YPL051W, strain arl3, hits give low values
The campaign covered roughly 5,500 compounds. About 2,000 (36%) were called active. About 18% were inconclusive and are not listed. This is one part of the list.
property: normalized growth
Number, no unit, nothing else.

Examples with answers:
{"compound": "COc1ccc(-c2oc3ccccc3c(=O)c2O)cc1OC", "property": "normalized growth", "measured number": 0.371}
{"compound": "C#CC1(O)CCC2C3CCC4=CC(=O)CCC4(C)C3CCC21C (stereo unspecified)", "property": "normalized growth", "measured number": 1.01}
{"compound": "C[C@]12CCC(=O)C=C1CCC1C2[C@@H](O)C[C@@]2(C)C1CC[C@]2(O)C(=O)COC(=O)CCC(=O)O (stereo partly specified)", "property": "normalized growth", "measured number": 1}
{"compound": "CCN(CC)CCNC(=O)c1cc(Cl)c(N)cc1OC", "property": "normalized growth", "measured number": 0.998}
{"compound": "CNC(Cc1c[nH]c2ccccc12)C(=O)O (stereo unspecified)", "property": "normalized growth", "measured number": 0.99}

Give the value of normalized growth reported for the following: COc1cc2c(cc1OC)[C@@]13CCN4CC5=CCOC6CC(=O)N2C1[C@H]6[C@H]5C[C@H]43 (stereo partly specified)
0.997

Give the value of normalized growth reported for the following: `CCOC([O-])=Nc1c[n+](N2CCOCC2)no1`
0.995

Give the value of normalized growth reported for the following: `CC(=O)NS(=O)(=O)c1ccc(NC(=O)c2ccccc2C(=O)O)cc1`
1.03

Give the value of normalized growth reported for the following: `O=c1c(O)c(-c2ccc(O)c(O)c2)oc2cc(O)ccc12`
0.962

Give the value of normalized growth reported for the following: `c1ccc2c(Cc3c[nH]c4ccccc34)c[nH]c2c1`
0.264

Give the value of normalized growth reported for the following: `CNS(=O)(=O)c1ccc(NC(=O)c2ccccc2C(=O)O)cc1`
1.02
